# System: 855422-203-R-J1-PDC complex spheroid viability
# test description: Anticancer human tumor 855422-203-R-J1-PDC patient-derived bladder carcinoma cell line growth inhibition
# condition: curve of first compound; second compound 10 µM
pIC50: −log10 of the molar value.
property label: pIC50

>>> test_result("Nc1ncn(C2CC(O)C(CO)S2)c(=O)n1 (stereo unspecified) + NC1CC1c1ccc(-c2cccc(O)c2)cc1")
"< 6.52"
>>> test_result("CCN(c1cc(-c2ccc(CN3CCOCC3)cc2)cc(C(=O)NCc2c(C)cc(C)[nH]c2=O)c1C)C1CCOCC1 + NC1CCC(NC2CC2c2ccccc2)CC1")
"< 5.52"
>>> test_result("CCc1c2c(nc3ccc(O)cc13)-c1cc3c(c(=O)n1C2)COC(=O)[C@]3(O)CC + NC1CCC(NC2CC2c2ccccc2)CC1")
"> 9.02"
>>> test_result("CCN(c1cc(-c2ccc(CN3CCOCC3)cc2)cc(C(=O)NCc2c(C)cc(C)[nH]c2=O)c1C)C1CCOCC1 + NC1CC1c1ccc(-c2cccc(O)c2)cc1")
"< 5.52"
>>> test_result("CC1(C)CCC(CN2CCN(c3ccc(C(=O)NS(=O)(=O)c4ccc(NCC5CCOCC5)c([N+](=O)[O-])c4)c(Oc4cnc5[nH]ccc5c4)c3)CC2)=C(c2ccc(Cl)cc2)C1 + NC1CC1c1ccc(-c2cccc(O)c2)cc1")
5.26
>>> test_result("CC[C@@]1(O)C(=O)OCc2c1cc1n(c2=O)Cc2cc3c(CN(C)C)c(O)ccc3nc2-1 + NC1CCC(NC2CC2c2ccccc2)CC1")
8.21

###

Measured viability, T/C by item
# Tested on: 855422-203-R-J1-PDC complex spheroid viability
# test description: Anticancer human tumor 855422-203-R-J1-PDC cell line growth inhibition;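 further: drug exposure lasted 7 days starting on day 3 after seeding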;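 on viability, T/C: luminescence viability as percent of DMSO vehicle wells = 100%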
# condition: second compound 10 µM; first compound 1 µM; stronger effect = lower value
# From the text: Multicellular complex tumor spheroid response to LSD1 Inhibitor Iadademstat in combination with a variety of drugs and investigational agents in selected tumor cell lines The current study was undertaken to assess response to LSD1 inhibitors in combination with standard-of-care drugs and investigational agents in solid tumor complex spheroid models as well as in the K-562 leukemia. […] Compounds. […] If the clinical Cmax for an agent had not been determined, the highest concentration tested was 10 microM. […]
property label: viability, T/C (%)

>>> test_result("Nc1ncn(C2CC(O)C(CO)O2)c(=O)n1 (centres undefined) + NC1CC1c1ccc(-c2cccc(O)c2)cc1")
85.2
>>> test_result("CC1COCCN1c1cc(C2(S(C)(=N)=O)CC2)nc(-c2ccnc3[nH]ccc23)n1 (centres undefined) + NC1CC1c1ccc(-c2cccc(O)c2)cc1")
75.5
>>> test_result("COc1ccc([C@@H](O)c2cc(-c3ncnc4cc(N5CCOCC5)ccc34)c(F)cc2Cl)nn1 + NC1CCC(NC2CC2c2ccccc2)CC1")
64.7
>>> test_result("COc1ccc([C@@H](O)c2cc(-c3ncnc4cc(N5CCOCC5)ccc34)c(F)cc2Cl)nn1 + NC1CC1c1ccc(-c2cccc(O)c2)cc1")
71.3

###

# Test system: 855422-203-R-J1-PDC complex spheroid viability
# test description: Anticancer human tumor 855422-203-R-J1-PDC cell line growth inhibition;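 further: drug exposure lasted 7 days starting on day 3 after seeding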;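 on viability, T/C: luminescence viability as percent of DMSO vehicle wells = 100%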
# condition: second compound 0.1 µM; first compound 0.3 µM; stronger effect = lower value
# Description: Multicellular complex tumor spheroid response to LSD1 Inhibitor Iadademstat in combination with a variety of drugs and investigational agents in selected tumor cell lines The current study was undertaken to assess response to LSD1 inhibitors in combination with standard-of-care drugs and investigational agents in solid tumor complex spheroid models as well as in the K-562 leukemia. […] Compounds. […] If the clinical Cmax for an agent had not been determined, the highest concentration tested was 10 microM. […]
Strictly below 70% in viability, T/C: condition met. Otherwise: condition not met.

>>> label_class("COc1cc(C2c3cc4c(cc3C(OC3OC5COC(C)OC5C(O)C3O)C3COC(=O)C23)OCO4)cc(OC)c1O (stereo unspecified) + NC1CC1c1ccc(-c2cccc(O)c2)cc1")
"condition met"
>>> label_class("Nc1ccn(C2OC(CO)C(O)C2(F)F)c(=O)n1 (stereo unspecified) + NC1CCC(NC2CC2c2ccccc2)CC1")
"condition met"
>>> label_class("NS(=O)(=O)OCC1CC(n2ccc3c(NC4CCc5ccccc54)ncnc32)CC1O (stereo unspecified) + NC1CC1c1ccc(-c2cccc(O)c2)cc1")
"condition not met"
>>> label_class("Nc1ccccc1NC(=O)c1ccc(CNC(=O)OCc2cccnc2)cc1 + NC1CC1c1ccc(-c2cccc(O)c2)cc1")
"condition not met"
>>> label_class("Nc1ccn(C2OC(CO)C(O)C2(F)F)c(=O)n1 (stereo unspecified) + NC1CC1c1ccc(-c2cccc(O)c2)cc1")
"condition met"
>>> label_class("CCN(c1cc(-c2ccc(CN3CCOCC3)cc2)cc(C(=O)NCc2c(C)cc(C)[nH]c2=O)c1C)C1CCOCC1 + NC1CCC(NC2CC2c2ccccc2)CC1")
"condition not met"
>>> label_class("NS(=O)(=O)OCC1CC(n2ccc3c(NC4CCc5ccccc54)ncnc32)CC1O (stereo unspecified) + NC1CCC(NC2CC2c2ccccc2)CC1")
"condition not met"
>>> label_class("CCc1c2c(nc3ccc(O)cc13)-c1cc3c(c(=O)n1C2)COC(=O)[C@]3(O)CC + NC1CCC(NC2CC2c2ccccc2)CC1")
"condition met"
>>> label_class("Nc1ccccc1NC(=O)c1ccc(CNC(=O)OCc2cccnc2)cc1 + NC1CCC(NC2CC2c2ccccc2)CC1")
"condition not met"
>>> label_class("CCN(c1cc(-c2ccc(CN3CCOCC3)cc2)cc(C(=O)NCc2c(C)cc(C)[nH]c2=O)c1C)C1CCOCC1 + NC1CC1c1ccc(-c2cccc(O)c2)cc1")
"condition not met"
>>> label_class("O=C(C=Cc1cccc(S(=O)(=O)Nc2ccccc2)c1)NO + NC1CC1c1ccc(-c2cccc(O)c2)cc1")
"condition met"
>>> label_class("Nc1ncn(C2CC(O)C(CO)S2)c(=O)n1 (stereo unspecified) + NC1CCC(NC2CC2c2ccccc2)CC1")
"condition not met"
>>> label_class("Nc1ncn(C2CC(O)C(CO)S2)c(=O)n1 (stereo unspecified) + NC1CC1c1ccc(-c2cccc(O)c2)cc1")
"condition not met"
>>> label_class("CCc1c2c(nc3ccc(O)cc13)-c1cc3c(c(=O)n1C2)COC(=O)[C@]3(O)CC + NC1CC1c1ccc(-c2cccc(O)c2)cc1")
"condition met"
>>> label_class("COc1cc(C2c3cc4c(cc3C(OC3OC5COC(C)OC5C(O)C3O)C3COC(=O)C23)OCO4)cc(OC)c1O (stereo unspecified) + NC1CCC(NC2CC2c2ccccc2)CC1")
"condition met"

###

# System: 855422-203-R-J1-PDC complex spheroid viability
# test description: Anticancer human tumor 855422-203-R-J1-PDC cell line growth inhibition;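 further: drug exposure lasted 7 days starting on day 3 after seeding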;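 on viability, T/C: luminescence viability as percent of DMSO vehicle wells = 100%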
# condition: second compound 0.316 µM; first compound 10 µM; stronger effect = lower value
# Description: Multicellular complex tumor spheroid response to LSD1 Inhibitor Iadademstat in combination with a variety of drugs and investigational agents in selected tumor cell lines The current study was undertaken to assess response to LSD1 inhibitors in combination with standard-of-care drugs and investigational agents in solid tumor complex spheroid models as well as in the K-562 leukemia. […] Compounds. […] If the clinical Cmax for an agent had not been determined, the highest concentration tested was 10 microM. […]
Strictly below 40% in viability, T/C: 1.0. Otherwise: 0.0.

>>> label_class("O=C(c1cc(Cc2n[nH]c(=O)c3ccccc23)ccc1F)N1CCN(C(=O)C2CC2)CC1 + NC1CCC(NC2CC2c2ccccc2)CC1")
0.0
>>> label_class("CC1COCCN1c1cc(C2(S(C)(=N)=O)CC2)nc(-c2ccnc3[nH]ccc23)n1 (stereo not given) + NC1CC1c1ccc(-c2cccc(O)c2)cc1")
0.0
>>> label_class("CC(C)c1c(-c2ccccc2)nc2c(C#N)c[nH]n2c1=O + NC1CC1c1ccc(-c2cccc(O)c2)cc1")
0.0
>>> label_class("CC1COCCN1c1cc(C2(S(C)(=N)=O)CC2)nc(-c2ccnc3[nH]ccc23)n1 (stereo not given) + NC1CCC(NC2CC2c2ccccc2)CC1")
0.0
>>> label_class("COc1ccc([C@@H](O)c2cc(-c3ncnc4cc(N5CCOCC5)ccc34)c(F)cc2Cl)nn1 + NC1CCC(NC2CC2c2ccccc2)CC1")
1.0
>>> label_class("O=C(c1cc(Cc2n[nH]c(=O)c3ccccc23)ccc1F)N1CCN(C(=O)C2CC2)CC1 + NC1CC1c1ccc(-c2cccc(O)c2)cc1")
0.0
>>> label_class("CC1(C)CCC(CN2CCN(c3ccc(C(=O)NS(=O)(=O)c4ccc(NCC5CCOCC5)c([N+](=O)[O-])c4)c(Oc4cnc5[nH]ccc5c4)c3)CC2)=C(c2ccc(Cl)cc2)C1 + NC1CC1c1ccc(-c2cccc(O)c2)cc1")
1.0
>>> label_class("CC(C)c1c(-c2ccccc2)nc2c(C#N)c[nH]n2c1=O + NC1CCC(NC2CC2c2ccccc2)CC1")
0.0
>>> label_class("COc1ccc([C@@H](O)c2cc(-c3ncnc4cc(N5CCOCC5)ccc34)c(F)cc2Cl)nn1 + NC1CC1c1ccc(-c2cccc(O)c2)cc1")
1.0
>>> label_class("CC1(C)CCC(CN2CCN(c3ccc(C(=O)NS(=O)(=O)c4ccc(NCC5CCOCC5)c([N+](=O)[O-])c4)c(Oc4cnc5[nH]ccc5c4)c3)CC2)=C(c2ccc(Cl)cc2)C1 + NC1CCC(NC2CC2c2ccccc2)CC1")
1.0
